pIC50: −log10 of the molar value.
pIC50 tested on human plasmin (Homo sapiens, UniProt P00747): recorded values
Sequence (P00747 581-810 limits assumed): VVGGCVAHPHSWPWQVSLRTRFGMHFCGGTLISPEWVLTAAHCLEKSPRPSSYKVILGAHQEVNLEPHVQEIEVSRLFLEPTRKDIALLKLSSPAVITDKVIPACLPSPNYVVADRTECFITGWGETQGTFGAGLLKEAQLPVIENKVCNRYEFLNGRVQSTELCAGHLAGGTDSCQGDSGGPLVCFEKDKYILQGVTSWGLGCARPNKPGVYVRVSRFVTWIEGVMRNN
Sequence (P00747 97-580 partner limits assumed): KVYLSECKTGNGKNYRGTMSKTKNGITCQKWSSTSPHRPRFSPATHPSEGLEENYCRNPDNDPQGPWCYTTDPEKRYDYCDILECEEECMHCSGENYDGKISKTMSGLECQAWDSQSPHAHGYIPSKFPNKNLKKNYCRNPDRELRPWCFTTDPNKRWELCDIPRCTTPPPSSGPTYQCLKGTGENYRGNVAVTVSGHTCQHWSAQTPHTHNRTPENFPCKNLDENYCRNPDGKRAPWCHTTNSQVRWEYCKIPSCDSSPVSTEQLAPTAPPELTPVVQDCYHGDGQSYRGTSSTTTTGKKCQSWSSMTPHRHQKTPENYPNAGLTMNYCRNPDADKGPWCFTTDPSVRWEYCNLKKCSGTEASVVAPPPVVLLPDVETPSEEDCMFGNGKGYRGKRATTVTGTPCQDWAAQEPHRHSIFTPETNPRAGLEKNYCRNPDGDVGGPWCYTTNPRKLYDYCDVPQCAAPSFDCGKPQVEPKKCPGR

As a guide, the following entries are already answered.
C[C@H](NC(=O)[C@@H](CO)NS(=O)(=O)Cc1ccccc1)C(=O)NCc1ccc(NC(=N)N)cc1 [AN]
< 5.60
N=C(N)c1ccc(CNC(=O)[C@@H]2C3CC3CN2C(=O)[C@@H](CO)NS(=O)(=O)Cc2ccccc2)cc1 (stereo partly shown) [T]
5.60 to 6.60
CCCCS(=O)(=O)N[C@H](CO)C(=O)N[C@@H](C)C(=O)NCc1ccc(C(=N)N)s1 [L]
< 5.60

Recorded pIC50 for N=C(N)c1ccc(CNC(=O)[C@@H]2CCN2C(=O)[C@@H](CO)NS(=O)(=O)CCc2ccccc2)cc1 [S] with human plasmin (Homo sapiens, UniProt P00747), please?
< 5.60

---

IC50 tested on human plasmin (Homo sapiens): recorded values

As a guide, the following entries are already answered.
CCCCS(=O)(=O)NC(CO)C(=O)N1CC2CC2C1C(=O)NCc1ccc(C(=N)N)cc1 (mixture of isomers) [AA]
> 2500 nM
C[C@H](NC(=O)[C@@H](CO)NS(=O)(=O)c1ccc2ccccc2c1)C(=O)NCc1ccc(C(=N)N)cc1 [AI]
> 2500 nM

Quick check: IC50 of CCCCS(=O)(=O)NC(CO)C(=O)N1CCCC1C(=O)NCc1ccc(C(=N)N)cc1 (mixture of isomers) [N] ?
> 2500 nM

Quick check: IC50 of CCCCS(=O)(=O)NC(CO)C(=O)NC(C)C(=O)NCc1ccc(NC(=N)N)cc1 (stereo not shown) [AG] ?
> 2500 nM

---

pKi tested on UniProtKB P00749: recorded values
pKi: −log10 of the molar value.

As a guide, the following entries are already answered.
CCCCS(=O)(=O)N[C@H](CO)C(=O)N[C@@H](C)C(=O)NCCCCNC(=N)N [B]
5.60 to 6.60
C[C@H](NC(=O)[C@@H](C)NS(=O)(=O)Cc1ccccc1)C(=O)NCc1ccc(C(=N)N)cc1 [AK]
> 7.00
C[C@H](NC(=O)[C@@H](CO)NS(=O)(=O)c1ccc2ccccc2c1)C(=O)NCc1ccc(C(=N)N)cc1 [AI]
6.60 to 7.00
N=C(N)c1ccc(CNC(=O)C2C3CC3CN2C(=O)C(CO)NS(=O)(=O)Cc2ccccc2)cc1 (stereo not drawn) [AD]
> 7.00
CCCCS(=O)(=O)N[C@H](CO)C(=O)N[C@@H](C)C(=O)NCc1ccc(C(=N)N)s1 [L]
> 7.00

Quick check: pKi of N=C(N)c1ccc(CNC(=O)[C@@H]2CCN2C(=O)[C@@H](CO)NS(=O)(=O)Cc2ccccc2)cc1 [R] ?
> 7.00

Quick check: pKi of C[C@H](NC(=O)[C@@H](CO)NS(C)(=O)=O)C(=O)NCc1ccc(C(=N)N)cc1 [AU] ?
5.60 to 6.60

---

target: human plasmin (Homo sapiens); construct: Purified human plasmin was obtained from Enzyme Research Laboratories, Inc; purchased Enzyme Research Laboratories, Inc; test: Plasmin assay, chromogenic substrate S-2366; type: biochemical; settings: 30 minute incubation, HBSA buffer, plasmin 1.0 nM
property-measured: IC50

As a guide, the following entries are already answered.
CCC[C@H](NC(=O)[C@@H](CO)NS(=O)(=O)Cc1ccccc1)C(=O)NCc1ccc(C(=N)N)cc1
> 2500 nM
N=C(N)Nc1ccc(CNC(=O)Cn2cccc(NS(=O)(=O)Cc3ccccc3)c2=O)cc1
> 2500 nM

Alright, here's another compound for you.
Quick check: IC50 of CCCCS(=O)(=O)N[C@H](CO)C(=O)N1CC2CC2C1C(=O)NCc1ccc(C(=N)N)cc1 (stereo partly drawn) ?
> 2500 nM
